# collection of IC50 values tested on human TREX1 (Homo sapiens (Human))
# Sequence (Q9NSU2 1-242): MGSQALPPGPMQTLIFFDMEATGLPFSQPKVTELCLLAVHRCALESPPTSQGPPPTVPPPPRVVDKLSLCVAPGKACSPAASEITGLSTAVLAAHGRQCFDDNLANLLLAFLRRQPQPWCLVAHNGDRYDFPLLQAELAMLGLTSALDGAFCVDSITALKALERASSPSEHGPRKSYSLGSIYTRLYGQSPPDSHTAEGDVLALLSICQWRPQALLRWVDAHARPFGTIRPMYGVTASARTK

Below: 2 compounds and their reported IC50.
Indicate its recorded IC50; the compound in question is CC(C)C[C@H](C(=O)NCc1ccc(Cl)c(Cl)c1)N1CCC(Cc2ccccc2)N2C[C@H](N)C[C@H]2C1=O (stereo partly drawn)
1000 to 9990 nM

Indicate its recorded IC50; the compound in question is CC(C)C[C@H](C(=O)NCCc1ccccc1)N1CCC(CCc2ccccc2)N2C[C@H](N)C[C@H]2C1=O (stereo partly drawn)
1000 to 9990 nM

More entries:
Indicate its recorded IC50; the compound in question is CC(C)C[C@H](C(=O)NCc1ccc(Cl)c(Cl)c1)N1CCC(COc2ccccc2)N2C[C@H](N)C[C@H]2C1=O (stereo partly drawn)
< 1000 nM
